Target: kinase domain of BRAF^WT (human, UniProt P15056 457-717)
Sequence (P15056 whole entry, looked up, the tested form may be a part): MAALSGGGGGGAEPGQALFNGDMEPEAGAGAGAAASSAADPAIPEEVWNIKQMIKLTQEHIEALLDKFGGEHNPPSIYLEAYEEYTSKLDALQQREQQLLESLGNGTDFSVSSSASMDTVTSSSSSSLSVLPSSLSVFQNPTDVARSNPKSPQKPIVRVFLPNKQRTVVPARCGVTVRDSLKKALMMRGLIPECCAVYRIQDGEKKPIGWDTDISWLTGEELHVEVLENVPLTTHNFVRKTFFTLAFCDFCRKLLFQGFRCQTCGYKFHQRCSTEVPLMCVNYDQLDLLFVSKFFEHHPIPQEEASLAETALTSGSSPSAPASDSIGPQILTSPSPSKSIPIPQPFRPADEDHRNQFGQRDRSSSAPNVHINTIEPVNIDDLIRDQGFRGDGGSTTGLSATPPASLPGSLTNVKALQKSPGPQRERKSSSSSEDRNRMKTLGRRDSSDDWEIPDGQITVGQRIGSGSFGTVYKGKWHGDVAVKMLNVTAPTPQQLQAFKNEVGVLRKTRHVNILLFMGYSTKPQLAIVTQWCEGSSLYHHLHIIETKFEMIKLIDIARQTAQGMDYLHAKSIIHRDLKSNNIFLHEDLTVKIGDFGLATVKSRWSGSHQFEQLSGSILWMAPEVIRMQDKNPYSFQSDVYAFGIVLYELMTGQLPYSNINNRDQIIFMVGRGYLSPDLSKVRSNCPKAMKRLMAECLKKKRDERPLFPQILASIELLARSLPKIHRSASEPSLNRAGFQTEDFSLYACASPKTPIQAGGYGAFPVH
Test: other fluorescence titration
Ends that are not written are not given here.
ASSAY_METRIC: Kd
Answer with the number, then the unit.

Report Kd for TRHVNILLFM (also: Cy3 label, end not given here) [Braftide-Cy3] please.
6.69 µM
